For each of the compounds below, state its IC50.
# target.of.assay: Carboxy-terminal domain RNA polymerase II polypeptide A small phosphatase 1 (Homo sapiens)
# Sequence (Q9GZU7 whole entry): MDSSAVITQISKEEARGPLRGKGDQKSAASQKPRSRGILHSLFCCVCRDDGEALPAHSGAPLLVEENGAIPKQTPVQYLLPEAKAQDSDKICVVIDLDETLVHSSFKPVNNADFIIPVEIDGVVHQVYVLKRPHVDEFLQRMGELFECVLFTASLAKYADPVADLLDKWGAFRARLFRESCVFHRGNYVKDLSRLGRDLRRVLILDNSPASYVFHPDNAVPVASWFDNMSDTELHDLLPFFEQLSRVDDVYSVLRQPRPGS
# measurement.notes: CTDSP1 inhibitors, concentration-response, biochemical, absorbance readout, ultra-high-throughput screen actives (AID 540297)
# Type: functional
Activity calls are given as the source filed them.

Consider the following illustrative entries.
>>> df
                                   compound                           target_of_assay    reported_value
0  CCn1c(=O)c(NC(=O)c2ccccc2)c2n(c1=S)CCCCC2  Carboxy-terminal domain RNA polymerase II polypeptide A small phosphatase 1 (Homo sapiens)  8.47 µM (active)
1           O=S(=O)(Nc1ccccc1)c1cccc2nsnc12  Carboxy-terminal domain RNA polymerase II polypeptide A small phosphatase 1 (Homo sapiens)  6.86 µM (active)

Give IC50 for all compounds that follow.
1. COc1ccccc1NC(=O)c1nn(-c2ccc(Cl)cc2)ccc1=O
2. CCCSC1=N/C(=C\c2ccc([N+](=O)[O-])o2)C(=O)S1
3. O=C(O)Cc1ccc(-n2cccc2)cc1
4. O=C(N=Nc1c(O)[nH]c2ccc([N+](=O)[O-])cc12)c1cc(-c2ccccc2Cl)nc2ccccc12
5. O=C(COc1ccc2oc(-c3ccccc3)cc(=O)c2c1)NCc1ccco1
6. CC(C)(O)CCCC(C)(O)c1ccc(C(=O)O)cc1O (configuration not stated)

1: 9.88 µM (active); 2: 4.92 µM (active); 3: 4.01 µM (active); 4: 0.711 µM (active); 5: 9.63 µM (active); 6: 9.75 µM (active)

Give IC50 for all compounds that follow.
1. Cc1cccc(NC(=O)CNC(=O)c2cccc(-n3cccc3)c2)c1C
2. C[N+]1(C2CCC3CCCC2C3O)CCCC1 (configuration not stated)
3. CCCc1ccc(C(=O)NNC(=O)c2ccc(Cl)cc2)cc1
4. CC(=O)Nc1ccc(S(=O)(=O)N(C)CC(=O)OCC(=O)N2CCN(C(=O)c3ccco3)CC2)cc1

3.97 µM (active)
6.98 µM (active)
9.67 µM (active)
9.38 µM (active)

###

# target.of.assay: Rac GTPase-activating protein 1 (Homo sapiens)
# Sequence (Q9H0H5 whole entry): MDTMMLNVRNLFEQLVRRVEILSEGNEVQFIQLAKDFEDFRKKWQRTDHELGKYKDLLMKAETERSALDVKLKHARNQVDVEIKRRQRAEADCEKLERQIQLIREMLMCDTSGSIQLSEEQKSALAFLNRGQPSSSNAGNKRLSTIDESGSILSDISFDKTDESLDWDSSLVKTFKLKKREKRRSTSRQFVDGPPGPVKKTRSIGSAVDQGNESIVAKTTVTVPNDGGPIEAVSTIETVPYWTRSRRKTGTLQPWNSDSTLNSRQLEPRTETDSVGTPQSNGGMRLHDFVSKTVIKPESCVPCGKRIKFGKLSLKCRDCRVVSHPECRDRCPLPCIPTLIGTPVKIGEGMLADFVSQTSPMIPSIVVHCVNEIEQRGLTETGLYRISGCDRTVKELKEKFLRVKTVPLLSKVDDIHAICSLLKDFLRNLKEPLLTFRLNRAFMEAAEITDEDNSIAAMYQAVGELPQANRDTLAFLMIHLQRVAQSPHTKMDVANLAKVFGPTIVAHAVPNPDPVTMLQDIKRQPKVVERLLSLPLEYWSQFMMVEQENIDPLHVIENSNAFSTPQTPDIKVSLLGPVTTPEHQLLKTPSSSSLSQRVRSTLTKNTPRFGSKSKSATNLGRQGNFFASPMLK
# measurement.notes: blockers of MgcRacGAP-driven Rac1 GTP hydrolysis – biochemical, ADP Hunter fluorescence, primary and confirmatory, confirmation (AID 624330)
# Format: functional
Active and inactive are the calls of the source.
assay.metric: IC50

Consider the following illustrative entries.
                                   molecule                           target_of_assay  assay_metric    reported_value
0                Oc1ccc(Nc2ncnc3ccccc23)cc1  Rac GTPase-activating protein 1 (Homo sapiens)          IC50  15.5 µM (active)
1                   Nc1ccc(N2CCCCC2)c(Cl)c1  Rac GTPase-activating protein 1 (Homo sapiens)          IC50  46.4 µM (active)
2        CCCCNc1[nH]c(=S)nc2cc(OC)c(OC)cc12  Rac GTPase-activating protein 1 (Homo sapiens)          IC50  61.8 µM (active)
3  Oc1ccc(/C=N/Nc2cc(N3CCOCC3)nc(N3CCOCC3)n2)cc1  Rac GTPase-activating protein 1 (Homo sapiens)          IC50  45.3 µM (active)
4     Cc1cccc(OCC(=O)N2CCN(Cc3ccncc3)CC2)c1  Rac GTPase-activating protein 1 (Homo sapiens)          IC50  82.9 µM (active)

Give IC50 for all molecules that follow.
1. CCOc1cc(/C=N/NC(=O)c2ccc(=O)n(C)c2)ccc1O
2. O=C(Cn1sc2ccccc2c1=O)Nc1ccc(F)cc1
3. O=c1c2c([N+](=O)[O-])cc([N+](=O)[O-])cc2[s+]([O-])n1Cc1ccccc1 (stereo not given)
4. Cn1cccc1/C=N/N1CCN(c2ccccc2)CC1

1. 59.6 µM (active)
2. 56.2 µM (active)
3. 46.6 µM (active)
4. 84.2 µM (active)

Give IC50 for all molecules that follow.
1. Cc1ccc(Nc2n[nH]c(=S)s2)cc1
2. CCOC(=O)/C(C#N)=C\c1ccc(O)c(OC)c1
3. COc1ccc([C@H]2CN(c3ccc(OC)cc3)C(=O)[C@@H]2CC(=O)Nc2ccccc2)cc1
4. Cc1ccc(CNc2ncc(-c3ccccc3)n2C)o1
5. N#Cc1c(O)nsc1Nc1ccccc1
6. CCN(CC)c1ccc(Nc2nc(-c3cccnc3)cs2)cc1

1. 72.2 µM (active)
2. 48.9 µM (active)
3. 115 µM (active)
4. 83.2 µM (active)
5. 79.5 µM (active)
6. 185 µM (active)

Give IC50 for all molecules that follow.
1. CC1=CC(=O)NP(=O)(Oc2ccc3ccccc3c2)N1 (stereo not given)
2. Cc1ccc(-n2sc3ccccc3c2=O)cc1
3. O=S(=O)(c1ccc(Cl)c(NC(=S)N/N=C/c2ccc(O)cc2)c1)N1CCOCC1
4. C/C(=N\c1ccc(O)cc1)c1sc2ccccc2c1O

["80.7 µM (active)", "87.4 µM (active)", "47.6 µM (active)", "123 µM (active)"]
